# Test system: Escherichia coli TOP10;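 note: peptides expressed intracellularly from a pBAD plasmid library in pooled LB shake-flask culture, induced with 0.3% L-arabinose, DNA abundance read by NGS, three biological replicates, DESeq2 with apeglm shrinkage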
# PROCEDURE SUMMARY: shrunken log2 fold change of peptide-encoding DNA abundance (4.5 h post-induction vs induction); higher = less antimicrobial activity (less host growth inhibition)
# CONDITIONS: time post-induction: 4.5 h; library: site-saturation at positions 5, 18, 19, 20

# ORDERED RESIDUES, shrunken log2 fold change
data = [
    ("RRIRLRPPRLPRPRPRPNANPRP", -0.101),
    ("RRIRDRPPRLPRPRPRPKDYPRP", -0.192),
    ("RRIRWRPPRLPRPRPRPAFMPRP", 0.0849),
    ("RRIRARPPRLPRPRPRPEVCPRP", 1.25),
    ("RRIRTRPPRLPRPRPRPFQLPRP", -0.138),
    ("RRIRIRPPRLPRPRPRPTWNPRP", 0.409),
    ("RRIRPRPPRLPRPRPRPLFMPRP", -0.38),
    ("RRIRFRPPRLPRPRPRPPRVPRP", 0.605),
    ("RRIRVRPPRLPRPRPRPSMKPRP", -0.363),
    ("RRIRLRPPRLPRPRPRPADCPRP", 0.142),
    ("RRIRSRPPRLPRPRPRPYWDPRP", -0.321),
    ("RRIRLRPPRLPRPRPRPQSYPRP", -0.242),
    ("RRIRPRPPRLPRPRPRPRTKPRP", 0.518),
    ("RRIRYRPPRLPRPRPRPTGTPRP", -0.172),
    ("RRIRFRPPRLPRPRPRPANVPRP", -0.246),
    ("RRIRYRPPRLPRPRPRPFHLPRP", -0.532),
    ("RRIRARPPRLPRPRPRPICAPRP", 0.799),
    ("RRIRIRPPRLPRPRPRPTPFPRP", -0.133),
    ("RRIRSRPPRLPRPRPRPKEYPRP", 0.167),
    ("RRIRCRPPRLPRPRPRPVASPRP", 0.149),
    ("RRIRGRPPRLPRPRPRPHMDPRP", 0.0325),
    ("RRIRTRPPRLPRPRPRPQTVPRP", -0.216),
    ("RRIRDRPPRLPRPRPRPCQYPRP", -0.0971),
    ("RRIRHRPPRLPRPRPRPVTFPRP", 0.00537),
    ("RRIRGRPPRLPRPRPRPPHRPRP", 0.81),
    ("RRIRQRPPRLPRPRPRPCTHPRP", -0.502),
    ("RRIRHRPPRLPRPRPRPCHEPRP", -0.0201),
    ("RRIRQRPPRLPRPRPRPFSVPRP", -0.199),
    ("RRIRRRPPRLPRPRPRPKMTPRP", 0.24),
    ("RRIRSRPPRLPRPRPRPKCYPRP", -0.16),
    ("RRIRTRPPRLPRPRPRPLVFPRP", -0.214),
    ("RRIRPRPPRLPRPRPRPQSHPRP", -0.291),
    ("RRIRIRPPRLPRPRPRPDGEPRP", 0.0147),
    ("RRIRKRPPRLPRPRPRPNSTPRP", -0.0291),
    ("RRIRCRPPRLPRPRPRPKEDPRP", 0.166),
    ("RRIRIRPPRLPRPRPRPRSFPRP", -0.0641),
    ("RRIRFRPPRLPRPRPRPRWYPRP", -0.351),
    ("RRIRSRPPRLPRPRPRPPTNPRP", 0.298),
    ("RRIRVRPPRLPRPRPRPERAPRP", 0.264),
    ("RRIRGRPPRLPRPRPRPFSRPRP", 0.612),
    ("RRIRRRPPRLPRPRPRPESIPRP", -0.195),
    ("RRIRDRPPRLPRPRPRPYQPPRP", -0.0769),
    ("RRIRRRPPRLPRPRPRPHNCPRP", 0.163),
    ("RRIRTRPPRLPRPRPRPWEDPRP", 0.0242),
    ("RRIRPRPPRLPRPRPRPDGSPRP", -0.00717),
    ("RRIRYRPPRLPRPRPRPCGVPRP", 2.83),
    ("RRIRRRPPRLPRPRPRPNTPPRP", 0.0411),
    ("RRIRWRPPRLPRPRPRPNQIPRP", -0.189),
    ("RRIRWRPPRLPRPRPRPWEDPRP", -0.0135),
    ("RRIRQRPPRLPRPRPRPTACPRP", 0.0488),
    ("RRIRTRPPRLPRPRPRPYFLPRP", -1.18),
    ("RRIRIRPPRLPRPRPRPFIAPRP", -0.719),
    ("RRIRIRPPRLPRPRPRPNDNPRP", -0.912),
    ("RRIRWRPPRLPRPRPRPMIPPRP", 0.0901),
    ("RRIRLRPPRLPRPRPRPHVTPRP", -0.198),
    ("RRIRDRPPRLPRPRPRPLFQPRP", 0.192),
    ("RRIRDRPPRLPRPRPRPTEPPRP", 0.185),
    ("RRIRGRPPRLPRPRPRPHKLPRP", 0.213),
    ("RRIRDRPPRLPRPRPRPMLSPRP", "4.44e-05"),
    ("RRIRIRPPRLPRPRPRPYENPRP", -0.255),
    ("RRIRRRPPRLPRPRPRPYFMPRP", -0.353),
    ("RRIRCRPPRLPRPRPRPNHKPRP", -0.862),
    ("RRIRWRPPRLPRPRPRPANQPRP", 0.559),
]

Taken from the supplement of paper PMC9112550.
